Target: Stb5 (UniProt P38699)
Sequence: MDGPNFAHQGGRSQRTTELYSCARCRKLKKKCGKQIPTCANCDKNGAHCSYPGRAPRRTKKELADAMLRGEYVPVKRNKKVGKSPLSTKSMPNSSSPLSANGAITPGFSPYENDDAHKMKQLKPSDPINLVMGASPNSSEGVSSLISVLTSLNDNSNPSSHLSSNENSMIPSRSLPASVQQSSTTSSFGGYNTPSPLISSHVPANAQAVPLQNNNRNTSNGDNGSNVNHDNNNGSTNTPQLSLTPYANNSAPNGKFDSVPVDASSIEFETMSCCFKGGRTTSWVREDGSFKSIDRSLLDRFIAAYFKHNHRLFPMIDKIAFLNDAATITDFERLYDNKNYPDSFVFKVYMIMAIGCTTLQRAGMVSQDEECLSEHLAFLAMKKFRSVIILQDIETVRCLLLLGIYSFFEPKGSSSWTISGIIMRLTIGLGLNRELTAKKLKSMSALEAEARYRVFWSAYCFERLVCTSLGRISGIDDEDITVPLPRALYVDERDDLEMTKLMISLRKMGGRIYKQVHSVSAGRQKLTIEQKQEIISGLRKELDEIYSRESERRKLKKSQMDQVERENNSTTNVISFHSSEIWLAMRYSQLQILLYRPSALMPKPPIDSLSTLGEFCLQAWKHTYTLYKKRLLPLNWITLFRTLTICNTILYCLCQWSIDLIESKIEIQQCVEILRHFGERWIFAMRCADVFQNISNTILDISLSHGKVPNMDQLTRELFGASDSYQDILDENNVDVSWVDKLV
Assay: PBM E-score (8-mer binding enrichment) (E-score (-0.5 to 0.5)); higher = stronger / more preferred TF binding
Settings: protein concentration: 200 nM; construct: GST-full length
Whole data set: some 33,000 sequences, median “E-score (-0.5 to 0.5)” near -0.054, cut for the highest 2% near 0.35. The sample as a whole holds a higher share of the highest values than the screen did.
Binary classification by PBM E-score, with 0.006 as an inclusive lower bound for MET; all other cases are NOT MET.

BIOPOLYMER_SEQUENCE: AATATCCC
TESTED_SYSTEM: Stb5 (UniProt P38699)
ASSIGNED_LABEL: MET
//
BIOPOLYMER_SEQUENCE: CCGACCCA
TESTED_SYSTEM: Stb5 (UniProt P38699)
ASSIGNED_LABEL: MET
//
BIOPOLYMER_SEQUENCE: GATTTGAC
TESTED_SYSTEM: Stb5 (UniProt P38699)
ASSIGNED_LABEL: MET
//
BIOPOLYMER_SEQUENCE: AACCGGTG
TESTED_SYSTEM: Stb5 (UniProt P38699)
ASSIGNED_LABEL: MET
//
BIOPOLYMER_SEQUENCE: AACATCCG
TESTED_SYSTEM: Stb5 (UniProt P38699)
ASSIGNED_LABEL: MET

Threshold query (PBM E-score >= 0.006) on "CGGACCAA" MET

Threshold query (PBM E-score >= 0.006) on "ACCGGGGG" MET

Threshold query (PBM E-score >= 0.006) on "ATGAAAGG" NOT MET

Threshold query (PBM E-score >= 0.006) on "ATAACTCC" MET

Threshold query (PBM E-score >= 0.006) on "CGAGTTAC" NOT MET

Threshold query (PBM E-score >= 0.006) on "ATAAAAGA" MET

---

Here, each record is paired with measured PBM E-score data.
Target: Stb5 (UniProt P38699)
Sequence: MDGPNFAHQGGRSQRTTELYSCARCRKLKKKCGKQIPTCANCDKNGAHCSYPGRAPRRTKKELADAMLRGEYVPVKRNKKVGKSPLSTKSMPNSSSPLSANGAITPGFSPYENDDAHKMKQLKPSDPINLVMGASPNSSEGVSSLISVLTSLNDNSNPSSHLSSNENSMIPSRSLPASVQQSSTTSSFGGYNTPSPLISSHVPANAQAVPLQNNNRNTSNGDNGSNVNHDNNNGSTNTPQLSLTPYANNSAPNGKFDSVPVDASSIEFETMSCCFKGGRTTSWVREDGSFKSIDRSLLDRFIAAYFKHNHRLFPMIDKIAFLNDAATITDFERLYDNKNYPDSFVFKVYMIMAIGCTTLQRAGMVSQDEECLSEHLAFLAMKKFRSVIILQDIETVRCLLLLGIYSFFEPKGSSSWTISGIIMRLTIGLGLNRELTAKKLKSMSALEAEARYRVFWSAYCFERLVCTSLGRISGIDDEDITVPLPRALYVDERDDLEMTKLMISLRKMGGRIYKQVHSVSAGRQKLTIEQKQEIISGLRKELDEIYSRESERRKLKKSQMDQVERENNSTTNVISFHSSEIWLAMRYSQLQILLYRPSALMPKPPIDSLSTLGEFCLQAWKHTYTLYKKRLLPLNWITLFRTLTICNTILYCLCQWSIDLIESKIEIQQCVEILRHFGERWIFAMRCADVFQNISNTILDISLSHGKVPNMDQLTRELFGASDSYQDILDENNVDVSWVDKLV
Experiment: PBM E-score (8-mer binding enrichment) (E-score (-0.5 to 0.5)); higher = stronger / more preferred TF binding
Settings: protein concentration: 200 nM; construct: GST-full length
Over roughly 33,000 sequences, “E-score (-0.5 to 0.5)” has its median near -0.054; the highest 2% begin near 0.35. What follows is part of a selection rich in the highest values, with near analogues and random picks from the rest.
Enter a number only.

See these solved cases before continuing.
BIOPOLYMER_SEQUENCE: ACAGGATC
TESTED_SYSTEM: Stb5 (UniProt P38699)
OBSERVED_VALUE: -0.312
--
BIOPOLYMER_SEQUENCE: TAGAACAA
TESTED_SYSTEM: Stb5 (UniProt P38699)
OBSERVED_VALUE: -0.15

// PBM E-score lookup, key: "CACCAACG" 0.0702

---

Biological target: Stb5 (UniProt P38699)
Sequence: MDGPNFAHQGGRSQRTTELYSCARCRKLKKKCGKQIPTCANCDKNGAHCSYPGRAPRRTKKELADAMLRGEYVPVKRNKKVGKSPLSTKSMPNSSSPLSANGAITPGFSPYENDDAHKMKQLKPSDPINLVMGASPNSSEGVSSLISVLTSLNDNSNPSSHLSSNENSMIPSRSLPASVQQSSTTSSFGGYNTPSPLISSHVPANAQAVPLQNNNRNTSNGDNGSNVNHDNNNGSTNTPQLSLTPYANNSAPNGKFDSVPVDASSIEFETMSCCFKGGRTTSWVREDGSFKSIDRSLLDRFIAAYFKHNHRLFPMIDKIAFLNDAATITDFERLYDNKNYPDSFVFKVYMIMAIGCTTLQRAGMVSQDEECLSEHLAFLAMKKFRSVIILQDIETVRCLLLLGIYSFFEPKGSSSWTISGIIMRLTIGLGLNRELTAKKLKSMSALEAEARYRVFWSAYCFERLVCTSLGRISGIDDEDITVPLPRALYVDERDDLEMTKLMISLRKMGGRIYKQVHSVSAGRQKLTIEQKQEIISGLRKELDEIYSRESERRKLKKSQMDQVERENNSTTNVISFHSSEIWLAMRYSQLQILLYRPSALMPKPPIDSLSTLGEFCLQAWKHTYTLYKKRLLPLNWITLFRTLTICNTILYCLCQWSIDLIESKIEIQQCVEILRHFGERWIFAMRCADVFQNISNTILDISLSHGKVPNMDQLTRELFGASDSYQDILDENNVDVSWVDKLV
Assay: PBM E-score (8-mer binding enrichment) (E-score (-0.5 to 0.5)); higher = stronger / more preferred TF binding
Conditions: protein concentration: 200 nM; construct: GST-full length
Whole data set: some 33,000 sequences, median “E-score (-0.5 to 0.5)” near -0.054, cut for the highest 2% near 0.35. The entries come from a sample that favours the highest values as a whole.
OBSERVATION_TYPE: PBM E-score
Enter a number only.

See these solved cases before continuing.
BIOPOLYMER_SEQUENCE: GACCCGAC
PBM E-score: 0.295

BIOPOLYMER_SEQUENCE: AGGTCGGC
PBM E-score: 0.293

BIOPOLYMER_SEQUENCE: AATTTTAT
PBM E-score: 0.292

Now consider the entry below.
For Stb5 (UniProt P38699), provide PBM E-score of "CGGTGGCA" please. 0.299

---

Target: Stb5 (UniProt P38699)
Sequence: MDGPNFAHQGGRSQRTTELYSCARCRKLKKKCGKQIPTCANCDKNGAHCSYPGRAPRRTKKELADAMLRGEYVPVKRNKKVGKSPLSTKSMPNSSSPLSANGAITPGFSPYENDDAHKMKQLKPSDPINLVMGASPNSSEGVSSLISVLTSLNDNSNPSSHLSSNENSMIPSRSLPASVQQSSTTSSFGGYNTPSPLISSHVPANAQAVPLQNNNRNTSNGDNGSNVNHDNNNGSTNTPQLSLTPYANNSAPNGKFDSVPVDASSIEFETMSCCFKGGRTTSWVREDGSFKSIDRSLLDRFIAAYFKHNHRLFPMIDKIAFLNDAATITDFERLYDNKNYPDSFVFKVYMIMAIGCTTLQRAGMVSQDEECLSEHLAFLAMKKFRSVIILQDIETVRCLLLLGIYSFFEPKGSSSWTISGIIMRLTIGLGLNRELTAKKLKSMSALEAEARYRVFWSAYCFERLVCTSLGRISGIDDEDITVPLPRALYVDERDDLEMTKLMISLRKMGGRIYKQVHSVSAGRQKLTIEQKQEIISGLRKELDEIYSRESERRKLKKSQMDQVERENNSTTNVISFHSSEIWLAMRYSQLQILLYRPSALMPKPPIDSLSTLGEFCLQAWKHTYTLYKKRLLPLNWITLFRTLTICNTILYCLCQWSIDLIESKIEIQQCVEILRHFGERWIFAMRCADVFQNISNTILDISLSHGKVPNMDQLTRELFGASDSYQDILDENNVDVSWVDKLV
Assay: PBM E-score (8-mer binding enrichment) (E-score (-0.5 to 0.5)); higher = stronger / more preferred TF binding
Conditions: protein concentration: 200 nM; construct: GST-full length
In all, about 33,000 sequences were measured (“E-score (-0.5 to 0.5)”: median about -0.054, highest 2% from about 0.35 on). The sample holds the highest values, similar sequences and a random draw of the others, so the mix is not that of the screen.
OBSERVATION_TYPE: PBM E-score
Enter a number only.

See these solved cases before continuing.
BIOPOLYMER_SEQUENCE: ACGCCGTA
TESTED_SYSTEM: Stb5 (UniProt P38699)
OBSERVATION_TYPE: PBM E-score
OBSERVED_VALUE: 0.204
--
BIOPOLYMER_SEQUENCE: ACGGGGAG
TESTED_SYSTEM: Stb5 (UniProt P38699)
OBSERVATION_TYPE: PBM E-score
OBSERVED_VALUE: 0.202

Now consider the entry below.
// PBM E-score lookup, key: "ACGGGAAC" 0.205

Data provenance is the supplement of paper PMC3334620.
